Entry source: patent US12577229B2

# assayed target: human PDGFRβ (Homo sapiens, UniProt P09619)
# Construct: enzyme fragment for Enzyme Fragment Complementation (β-galactosidase fragment)
# Sequence (P09619 33-1106): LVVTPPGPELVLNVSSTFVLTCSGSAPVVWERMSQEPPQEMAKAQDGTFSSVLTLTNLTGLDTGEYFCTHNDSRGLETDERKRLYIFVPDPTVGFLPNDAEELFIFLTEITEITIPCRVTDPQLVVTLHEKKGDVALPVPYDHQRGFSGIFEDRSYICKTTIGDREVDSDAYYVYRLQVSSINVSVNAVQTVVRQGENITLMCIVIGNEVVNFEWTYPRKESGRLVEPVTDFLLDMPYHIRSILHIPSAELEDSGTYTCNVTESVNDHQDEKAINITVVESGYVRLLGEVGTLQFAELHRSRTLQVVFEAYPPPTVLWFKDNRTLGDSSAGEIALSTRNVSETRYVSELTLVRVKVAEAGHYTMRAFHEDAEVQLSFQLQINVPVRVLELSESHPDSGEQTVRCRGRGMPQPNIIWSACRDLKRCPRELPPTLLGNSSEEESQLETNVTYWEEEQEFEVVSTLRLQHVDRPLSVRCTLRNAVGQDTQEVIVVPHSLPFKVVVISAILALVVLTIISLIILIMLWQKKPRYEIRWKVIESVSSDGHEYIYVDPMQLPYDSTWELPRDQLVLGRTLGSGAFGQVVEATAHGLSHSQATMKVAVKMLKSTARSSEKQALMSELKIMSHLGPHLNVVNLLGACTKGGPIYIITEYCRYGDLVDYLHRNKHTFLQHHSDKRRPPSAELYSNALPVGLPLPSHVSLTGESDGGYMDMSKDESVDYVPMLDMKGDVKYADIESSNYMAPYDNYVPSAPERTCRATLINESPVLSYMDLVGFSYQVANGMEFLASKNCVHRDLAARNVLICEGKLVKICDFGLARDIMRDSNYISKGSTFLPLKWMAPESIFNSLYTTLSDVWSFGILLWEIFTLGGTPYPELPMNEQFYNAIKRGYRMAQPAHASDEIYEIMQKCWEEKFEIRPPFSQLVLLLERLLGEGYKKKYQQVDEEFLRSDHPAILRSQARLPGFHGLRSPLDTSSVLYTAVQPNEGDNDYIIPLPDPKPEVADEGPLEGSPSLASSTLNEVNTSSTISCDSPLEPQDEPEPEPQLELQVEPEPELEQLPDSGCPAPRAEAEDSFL
# assay remarks: DiscoverX PathHunter RTK cell based functional assay, PDGFRβ
# setup conditions: PDGFRβ U2OS cells, 3 nM PDGF-BB agonist, n=4
pIC50: −log10 of the molar value.
observation type: pIC50

input: Return pIC50 for the following compound: COc1ccc(COc2ncc(Cc3ccnc(-c4cnn(C)c4)n3)cc2OC)nc1 [Example 1]
output: < 4.70
